- target: recombinant SARS-CoV-2 M^pro (Proteros) (SARS-CoV-2)
- measurementProtocol: cell-based or functional assay
No end group written: not given here.
reportedEndpoint: IC50 of inhibition of M^pro enzymatic activity (FRET substrate cleavage)

Data request: Fill in: IC50 of inhibition of M^pro enzymatic activity (FRET substrate cleavage) of Ac-Gly-Tyr-His-aldehyde (SMILES CC(=O)NCC(=O)N[C@@H](Cc1ccc(O)cc1)C(=O)N[C@H](C=O)Cc1c[nH]cn1) [compound 8 (aldehydic tripeptide)] is ___
Data returned: 198 µM

Data request: Fill in: IC50 of inhibition of M^pro enzymatic activity (FRET substrate cleavage) of Pro-His-His-aldehyde [compound 9 (aldehydic tripeptide)] is ___
Data returned: > 170 µM

Data request: Fill in: IC50 of inhibition of M^pro enzymatic activity (FRET substrate cleavage) of Ac-Gly-His-Tyr-aldehyde (SMILES CC(=O)NCC(=O)N[C@@H](Cc1c[nH]cn1)C(=O)N[C@H](C=O)Cc1ccc(O)cc1) [compound 7 (aldehydic tripeptide)] is ___
Data returned: > 425 µM

Data request: Fill in: IC50 of inhibition of M^pro enzymatic activity (FRET substrate cleavage) of Ac-Gly-His-His-aldehyde (SMILES CC(=O)NCC(=O)N[C@@H](Cc1c[nH]cn1)C(=O)N[C@H](C=O)Cc1c[nH]cn1) [compound 5 (aldehydic tripeptide)] is ___
Data returned: > 213 µM
